biological target: CK2A1 (Homo sapiens, UniProt P68400); construct: purchased Eurofins; assay: Radiometric kinase assay (Eurofins), CK2A1; assay type: biochemical; settings: Table 9; read-out: CK2A1 RAD IC50
Sequence (P68400 whole entry): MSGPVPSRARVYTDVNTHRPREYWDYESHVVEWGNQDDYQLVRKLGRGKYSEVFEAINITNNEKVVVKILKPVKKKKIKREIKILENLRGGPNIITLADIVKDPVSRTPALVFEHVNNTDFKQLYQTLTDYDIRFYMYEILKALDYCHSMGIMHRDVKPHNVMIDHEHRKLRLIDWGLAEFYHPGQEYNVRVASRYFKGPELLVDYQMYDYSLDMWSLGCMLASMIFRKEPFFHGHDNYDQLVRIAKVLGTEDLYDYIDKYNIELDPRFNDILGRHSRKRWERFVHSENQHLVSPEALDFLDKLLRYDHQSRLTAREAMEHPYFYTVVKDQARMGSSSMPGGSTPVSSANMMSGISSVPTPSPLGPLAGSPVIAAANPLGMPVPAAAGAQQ
Consider the following molecules and their measured IC50 readings.
Number in nM, nothing else.

Problem: Retrieve IC50 measured for O=c1[nH]c(-c2cc(Br)c(O)cn2)nc2c(Cl)cc(Cl)cc12 [Compound 1006A] and print it.
Result: 182

Problem: Retrieve IC50 measured for O=c1[nH]c(-c2ccc(O)c(Cl)n2)nc2c(Cl)cc(Cl)cc12 [Compound 963A] and print it.
Result: 176

Problem: Retrieve IC50 measured for O=c1[nH]c(-c2ccc(O)c(Cl)n2)nc2c(Br)cccc12 [Compound 964A] and print it.
Result: 155

Further cases:
Problem: Retrieve IC50 measured for O=c1[nH]c(-c2cc(Br)c(O)cn2)nc2c(Br)cccc12 [Compound 1007A] and print it.
Result: 380

Problem: Retrieve IC50 measured for O=c1[nH]c(-c2cc(Br)c(O)cn2)nc2c(Br)cc(Br)cc12 [Compound 1005A] and print it.
Result: 94
